Tested on: MDA-MB-231
Assay: Antiproliferative activity against human MDA-MB-231 cells assessed as growth inhibition at 1 uM after 72 hrs by Cell Titer-Glo assay relative to control
Type: functional
Settings: read-out: GI
measured-endpoint: inhibition of growth at 1 µM (%)

chemical_smiles=Cc1cccn(-c2ccc(-c3ccc4c(C(=O)NC5CCOCC5)n[nH]c4c3)c(Cl)c2)c1=O uom=% measured_result=19.2
chemical_smiles=Cc1cccn(-c2ccc(-c3ccc4c(C(=O)NCC5CCOCC5)n[nH]c4c3)c(Cl)c2)c1=O uom=% measured_result=9.45
chemical_smiles=CCNC(=O)c1n[nH]c2cc(-c3ccc(-n4cccc(C)c4=O)cc3Cl)ccc12 uom=% measured_result=10.2
chemical_smiles=CNC(=O)c1n[nH]c2cc(-c3ccc(-n4cccc(C)c4=O)cc3Cl)ccc12 uom=% measured_result=13.2
chemical_smiles=CNC(=O)c1n[nH]c2cc(-c3ccc(-c4cncc(C)n4)cc3Cl)ccc12 uom=% measured_result=15.3
chemical_smiles=Cc1cccn(-c2ccc(-c3ccc4c(C(=O)NCCc5ccncc5)n[nH]c4c3)c(Cl)c2)c1=O uom=% measured_result=8.42
chemical_smiles=Cc1cccn(-c2ccc(-c3ccc4c(C(=O)Nc5ccncc5)n[nH]c4c3)c(Cl)c2)c1=O uom=% measured_result=6.59
chemical_smiles=Cc1cccn(-c2ccc(-c3ccc4c(C(=O)NCC5CC5)n[nH]c4c3)c(Cl)c2)c1=O uom=% measured_result=6.87
chemical_smiles=Cc1cccn(-c2ccc(-c3ccc4c(C(=O)NCc5ccncc5)n[nH]c4c3)c(Cl)c2)c1=O uom=% measured_result=6.31
chemical_smiles=Cc1nc(Nc2n[nH]c3c2CN(C(=O)N[C@H](CN(C)C)c2ccccc2)C3(C)C)c2sccc2n1 uom=% measured_result=62.6
chemical_smiles=CNC(=O)c1n[nH]c2cc(-c3ccc(-c4cccc(C)n4)cc3Cl)ccc12 uom=% measured_result=8.12
chemical_smiles=Cc1cccn(-c2ccc(-c3ccc4c(C(=O)NCCO)n[nH]c4c3)c(Cl)c2)c1=O uom=% measured_result=17.4
chemical_smiles=Cc1cccn(-c2ccc(-c3ccc4c(C(=O)NCc5ccccc5)n[nH]c4c3)c(Cl)c2)c1=O uom=% measured_result=9.66
chemical_smiles=COCCNC(=O)c1n[nH]c2cc(-c3ccc(-n4cccc(C)c4=O)cc3Cl)ccc12 uom=% measured_result=3.07
chemical_smiles=Cc1cccn(-c2ccc(-c3ccc4c(C(=O)NCC5CCN(C)CC5)n[nH]c4c3)c(Cl)c2)c1=O uom=% measured_result=18.4
